# System: 3-hydroxyacyl-CoA dehydrogenase type-2 (Homo sapiens) (UniProt Q99714)
# Sequence (Q99714 whole entry, looked up): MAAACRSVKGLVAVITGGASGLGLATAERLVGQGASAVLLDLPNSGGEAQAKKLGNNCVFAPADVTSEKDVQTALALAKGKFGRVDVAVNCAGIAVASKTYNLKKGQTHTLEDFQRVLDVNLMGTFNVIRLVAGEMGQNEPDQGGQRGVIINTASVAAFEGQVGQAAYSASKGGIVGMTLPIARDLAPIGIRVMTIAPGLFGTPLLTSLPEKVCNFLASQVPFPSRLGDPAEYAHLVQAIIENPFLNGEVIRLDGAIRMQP
# Sequence (Q99714 whole entry, looked up): as above
# Protocol text: qHTS Assay for Inhibitors of HADH2 (Hydroxyacyl-Coenzyme A Dehydrogenase, Type II); also: % is scaled to controls: 0 for no effect and ±100 for the full control effect; nearly all actives have a fitted effect of over 60% in size
# Measurement context: recombinant HADH2, NADH fluorescence, beta-hydroxybutyryl-CoA; series mostly up to 57.1 µM
About 2,500 (3.4%) of roughly 73,000 compounds were called active. Another 7% or so got no clear call; they are omitted. The sample holds actives, similar compounds and a random draw of the others, so the mix is not that of the screen.
Please provide measured activity change, negative = inhibition for the entries that follow.

Respond only with activity change, negative = inhibition recorded for CCOC(=O)N/N=C1/C[C@@H](O)[C@@H](O)[C@@H]2[C@@H]3C(=O)N(CC)C(=O)[C@H]3CC[C@H]12
11.3% [at 11.4 µM] (inactive)

Respond only with activity change, negative = inhibition recorded for CO[C@H]1COC(=O)[C@H](Cc2ccccc2)NC(=O)C/C=C\[C@@H](C)[C@H](OC)COC(=O)C/C=C\[C@@H]1C
2.71% [at 11.4 µM] (inactive)

Respond only with activity change, negative = inhibition recorded for C[C@@H](c1ccccc1)N1C(=O)[C@H]2[C@H]3[C@H](O)[C@H](O)C/C(=N/OC[C@@H](O)COCc4ccco4)[C@@H]3CC[C@@H]2C1=O
7.28% [at 11.4 µM] (inactive)

Respond only with activity change, negative = inhibition recorded for CC(=O)/C(=N\N=C(N)N)c1ccccc1
5.03% [at 11.4 µM] (inactive)

Respond only with activity change, negative = inhibition recorded for Cc1cc(N2CCCCC2)nc2ccc(Cc3ccc4nc(N5CCCCC5)cc(C)c4c3)cc12
1.3% [at 11.4 µM] (inactive)

Respond only with activity change, negative = inhibition recorded for Cc1c(S(=O)(=O)O)ccc(N=Nc2c(O)c(C(=O)O)cc3ccccc23)c1Cl
14% [at 11.4 µM] (inactive)

Respond only with activity change, negative = inhibition recorded for C/C(CCN1CCc2nc(-c3ccccc3)c(-c3ccccc3)cc2C1)=N\O[C@@H](C)c1cn([C@@H]2COC[C@@H]2O)nn1
-0.942% [at 11.4 µM] (inactive)

Respond only with activity change, negative = inhibition recorded for COC(=O)C(C(=O)OC)[C@@H]1CCCC(=O)C1
12% [at 11.4 µM] (inactive)

Respond only with activity change, negative = inhibition recorded for Cn1c(=S)c2[nH]c(SCCCc3ccccc3)nc2n(C)c1=O
7.85% [at 11.4 µM] (inactive)

----------
# System: 3-hydroxyacyl-CoA dehydrogenase type-2 (Homo sapiens)
# Protocol text: qHTS Assay for Inhibitors of HADH2 (Hydroxyacyl-Coenzyme A Dehydrogenase, Type II); also: % is scaled to controls: 0 for no effect and ±100 for the full control effect; nearly all actives have a fitted effect of over 60% in size
# Measurement context: recombinant HADH2, NADH fluorescence, beta-hydroxybutyryl-CoA; series mostly up to 57.1 µM
The campaign covered roughly 73,000 compounds. About 2,500 (3.4%) were called active. Another 7% or so got no clear call; they are omitted. What follows is part of a selection rich in actives, with near analogues and random picks from the rest.
Please provide measured activity change, negative = inhibition for the entries that follow.

Param request: activity change, negative = inhibition | system 3-hydroxyacyl-CoA dehydrogenase type-2 (Homo sapiens) | item N=C(CC(=O)Nc1ccccn1)c1ccccc1
6.89% [at 11.4 µM] (inactive)

Param request: activity change, negative = inhibition | system 3-hydroxyacyl-CoA dehydrogenase type-2 (Homo sapiens) | item O=C1NC(=O)[C@@](Cc2ccccc2)(c2cccnc2)N1
1.4% [at 11.4 µM] (inactive)

Param request: activity change, negative = inhibition | system 3-hydroxyacyl-CoA dehydrogenase type-2 (Homo sapiens) | item O=C(Cn1ccc(=O)[nH]c1=O)Nc1ccc(C(=O)O)c(O)c1
-10.7% [at 11.4 µM] (inactive)

Param request: activity change, negative = inhibition | system 3-hydroxyacyl-CoA dehydrogenase type-2 (Homo sapiens) | item CO[C@@H]1/C=C\O[C@]2(C)Oc3c(C)c(O)c4c(O)c(c(CN(C)C)c(O)c4c3C2=O)NC(=O)/C(C)=C\C=C[C@@H](C)[C@@H](O)[C@H](C)[C@@H](O)[C@H](C)[C@H](OC(C)=O)[C@@H]1C
-4.82% [at 11.4 µM] (inactive)

Param request: activity change, negative = inhibition | system 3-hydroxyacyl-CoA dehydrogenase type-2 (Homo sapiens) | item CO[C@H]1COC(=O)C/C=C\[C@H](C)COC(=O)[C@@H](OCc2ccccc2)/C=C\[C@@H]1C
8.32% [at 11.4 µM] (inactive)

Param request: activity change, negative = inhibition | system 3-hydroxyacyl-CoA dehydrogenase type-2 (Homo sapiens) | item COc1ccc(/C=C/NC(=O)c2ccc(OC)cc2)cc1
-13.3% [at 11.4 µM] (inactive)

Param request: activity change, negative = inhibition | system 3-hydroxyacyl-CoA dehydrogenase type-2 (Homo sapiens) | item Cc1cc2c(cc1C)NC1=C(N2)O[C@H](c2c[nH]c3ccc(COc4ccccc4)cc23)C1=O
0.634% [at 11.4 µM] (inactive)

Param request: activity change, negative = inhibition | system 3-hydroxyacyl-CoA dehydrogenase type-2 (Homo sapiens) | item NS(=O)(=O)c1cc(C(=O)O)c(Cl)c([N+](=O)[O-])c1Cl
11.6% [at 11.4 µM] (inactive)

Param request: activity change, negative = inhibition | system 3-hydroxyacyl-CoA dehydrogenase type-2 (Homo sapiens) | item CC(C)CSC[C@@H]1O[C@H](n2cnc3c(N)nccc32)[C@H](O)[C@@H]1O
7.39% [at 11.4 µM] (inactive)

Param request: activity change, negative = inhibition | system 3-hydroxyacyl-CoA dehydrogenase type-2 (Homo sapiens) | item C[C@@H]1CC[C@H]2[C@H](C)[C@H]3[C@H](C[C@H]4[C@@H]5CC=C6C[C@@H](O)CC[C@@]6(C)[C@@H]5C[C@@H](O)[C@]34C)N2C1
-8.91% [at 11.4 µM] (inactive)

Param request: activity change, negative = inhibition | system 3-hydroxyacyl-CoA dehydrogenase type-2 (Homo sapiens) | item C#CCC(C(=O)OC)(C(=O)OC)C(C[N+](=O)[O-])c1ccccc1 (stereo not given)
1.44% [at 11.4 µM] (inactive)

Param request: activity change, negative = inhibition | system 3-hydroxyacyl-CoA dehydrogenase type-2 (Homo sapiens) | item CN1CCc2nc(-c3ccccc3)c(-c3ccccc3)cc2C1
-8.44% [at 11.4 µM] (inactive)

Param request: activity change, negative = inhibition | system 3-hydroxyacyl-CoA dehydrogenase type-2 (Homo sapiens) | item CC(C)c1cc(CN(C)C)c(O)c(C(C)(C)C)c1
-0.755% [at 11.4 µM] (inactive)

Param request: activity change, negative = inhibition | system 3-hydroxyacyl-CoA dehydrogenase type-2 (Homo sapiens) | item Cc1cc(C)c2nc3c(c([C@H](O)[C@@H]4CCCCN4)c2c1)CC/C3=C/c1ccc(Cl)cc1
12.8% [at 11.4 µM] (inactive)

Param request: activity change, negative = inhibition | system 3-hydroxyacyl-CoA dehydrogenase type-2 (Homo sapiens) | item Cc1ccc2nc(CC(=O)c3ccc4ccccc4c3)c(=O)[nH]c2c1
11.5% [at 11.4 µM] (inactive)

Param request: activity change, negative = inhibition | system 3-hydroxyacyl-CoA dehydrogenase type-2 (Homo sapiens) | item CO[C@H]1COC(=O)CCC[C@@H](C)[C@H](OC)COC(=O)[C@@H](C)NC(=O)C/C=C\[C@@H]1C
7.05% [at 11.4 µM] (inactive)

Param request: activity change, negative = inhibition | system 3-hydroxyacyl-CoA dehydrogenase type-2 (Homo sapiens) | item O=S(=O)(O)c1ccc(O)c2ncccc12.O=S(=O)(O)c1ccc(O)c2ncccc12.[Zn]
-19.7% [at 11.4 µM] (inactive)

Param request: activity change, negative = inhibition | system 3-hydroxyacyl-CoA dehydrogenase type-2 (Homo sapiens) | item NS(=O)(=O)c1ccc(CCNC(=O)Nc2ccc(Cl)cc2)cc1
16% [at 11.4 µM] (inactive)

Param request: activity change, negative = inhibition | system 3-hydroxyacyl-CoA dehydrogenase type-2 (Homo sapiens) | item CC1(CCC(=O)OC2CCCCC2)OCCO1
-20.4% [at 11.4 µM] (inactive)

Param request: activity change, negative = inhibition | system 3-hydroxyacyl-CoA dehydrogenase type-2 (Homo sapiens) | item c1ccc2sc(SCCSc3nc4ccccc4s3)nc2c1
16.5% [at 11.4 µM] (inactive)
